B1: VH:VL chains; a variant is named by its letters at X, in order (parent)
chain 1: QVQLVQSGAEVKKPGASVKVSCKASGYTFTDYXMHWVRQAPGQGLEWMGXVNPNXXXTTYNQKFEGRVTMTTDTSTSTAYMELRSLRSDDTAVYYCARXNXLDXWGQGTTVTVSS
chain 2: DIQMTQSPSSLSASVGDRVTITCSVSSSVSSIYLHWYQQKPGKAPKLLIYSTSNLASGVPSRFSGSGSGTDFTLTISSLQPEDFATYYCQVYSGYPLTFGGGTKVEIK

variants of: B1; test: yeast display scFab, FACS + sequencing; conditions: with MET
Some of the results follow. How many sequences the whole screen found active is unknown.
metric: antigen binding call

As a guide, the following entries are already answered.
q: Report antigen binding call for `YKAGGSLF` please.
a: binds

q: Report antigen binding call for `YRAKSALV` please.
a: binds

q: Report antigen binding call for `SETGAALD` please.
a: no binding

q: Report antigen binding call for `FKAGGAVA` please.
a: binds

q: Report antigen binding call for `AARADDVD` please.
a: no binding

New cases:
q: Report antigen binding call for `VTGTGSSA` please.
a: no binding

q: Report antigen binding call for `DGAKGDGV` please.
a: no binding

q: Report antigen binding call for `DKGRGSSA` please.
a: no binding
